Target: T1, human SLITRK6 on cells (human, UniProt Q9H5Y7 27-841)
T1 construct: whole, on cells
Assay: flow cytometry on CHP-212 cells
pEC50: −log10 of the molar value.
Reported pEC50 values for a set of binders

binder	pEC50
phA108-LD038 (8) (antibody, V domains shown, drug-linker LD038 on cysteines freed by TCEP reduction, DAR 8.0; positions not given, also called phA108 ADC) VH: QVQLVQSGAEVKKPGASVKVSCTASGYIFNDYYLHWVRQAPGQGLEWVGIINPSGGSPVYAQKFQGRVTMTRDTSTNTVYMELSSLRSEDTAVYYCARGMVRGVRLFDYWGQGTLVTVSA VL: EIVLTQSPATLSLSPGERATLSCRASQSVSSYLAWYQQKPGQTPRLLIYDASNRATGVPARFSGSGSGTDFTLTISSLETEDFAVYYCQQRTNWPLTFGGGTKVEIK	9.85
hu1H2-13-LD038 (8) (antibody, V domains shown, drug-linker LD038 on cysteines freed by TCEP reduction, DAR 8.0; positions not given, also called hu1H2-13 ADC) VH: EVQLVESGGGLVQPGGSLRLSCAASGFTFSDYGLHWVRQAPGKGLEWVAYISSGSSTVYFADTLKGRFTISRDNAKNSLYLQMNSLRAEDTAVYYCTRGTWYFDVWGRGTLVTVSS VL: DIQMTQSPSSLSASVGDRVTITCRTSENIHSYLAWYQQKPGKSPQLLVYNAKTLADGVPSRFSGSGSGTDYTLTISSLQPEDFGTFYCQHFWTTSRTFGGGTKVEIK	9.30
hu14G1-03 (antibody, V domains shown) VH: EVQLVESGGGLVQPGGSLRLSCAASGFTFSDYGMHWVRQAPGKGLEWVSYISPGSSTIYYADTMKGRFTISRDNAKNSLYLQMNSLRAEDTAVYYCARAYGGSYWYFAVWGQGTLVTVSS VL: DIQMTQSPSSLSASVGDRVTITCRASGNIHSYLAWYQQKPGKSPQLLVYNAKTLADGVPSRFSGSGSGTDYTLTISSLQPEDFGTYYCQHFWSTPYTFGGGTKLEIK	9.43
